Molecular target: tBID (Mus musculus, UniProt P70444)
Construct: tBID was produced by cleavage of purified BID with caspase-8, as known in the art; made in house; host or cells: E. coli BL21 (BID), then cleaved in vitro with caspase-8
Sequence (P70444 60-195 limits assumed): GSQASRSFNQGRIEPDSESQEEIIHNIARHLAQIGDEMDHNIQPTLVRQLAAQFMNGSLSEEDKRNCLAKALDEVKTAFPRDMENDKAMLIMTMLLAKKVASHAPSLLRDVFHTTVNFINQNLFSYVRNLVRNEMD
Sequence (P70444 1-59 partner limits assumed): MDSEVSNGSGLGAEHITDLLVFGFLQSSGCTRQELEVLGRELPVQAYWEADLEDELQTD
Assay: tBID-induced Smac release from isolated mitochondria
Type: biochemical
Settings: 50 μM compound; isolated mitochondria
readout: inhibition at 50 µM (%)
Just the number in %, nothing appended.

Look up and report measured inhibition at 50 µM for this entry: CC(C)(C)OC(=O)NCCCCCC(=O)Nc1ccc(Sc2ccc([N+](=O)[O-])cc2)cc1 [Compound VIII]
0

Look up and report measured inhibition at 50 µM for this entry: COc1ccc(S(=O)(=O)NCCCCCC(=O)Nc2ccc(Sc3ccc([N+](=O)[O-])cc3)cc2)cc1 [Compound V]
16

Look up and report measured inhibition at 50 µM for this entry: CC(C)(C)OC(=O)NCCCC(=O)Nc1ccc(Sc2ccc([N+](=O)[O-])cc2)cc1 [Compound VI]
14

Look up and report measured inhibition at 50 µM for this entry: Nc1ccc(Sc2ccc(N)cc2)cc1 [XII]
22

====

Target: tBID (Mus musculus, UniProt P70444)
Construct: tBID was produced by cleavage of purified BID with caspase-8, as known in the art; made in house; host or cells: E. coli BL21 (BID), then cleaved in vitro with caspase-8
Sequence (P70444 60-195 limits assumed): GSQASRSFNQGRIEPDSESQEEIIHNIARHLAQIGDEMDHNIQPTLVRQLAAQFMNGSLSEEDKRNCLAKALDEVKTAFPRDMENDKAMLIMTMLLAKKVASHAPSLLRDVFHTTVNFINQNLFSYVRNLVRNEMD
Sequence (P70444 1-59 partner limits assumed): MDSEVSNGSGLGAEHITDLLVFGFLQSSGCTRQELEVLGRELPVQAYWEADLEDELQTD
Experiment: tBID-induced Smac release from isolated mitochondria
Type: biochemical
Settings: 50 μM compound; isolated mitochondria
The label depends only on inhibition at 50 µM: TRUE if it is at least 20%, FALSE if it is smaller.

inhibition at 50 µM >= 20% for CNS(=O)(=O)c1ccc(C)cc1 [X] ?
FALSE

inhibition at 50 µM >= 20% for NCCCC(=O)Nc1ccc(Sc2ccc([N+](=O)[O-])cc2)cc1 [Compound VII] ?
TRUE

inhibition at 50 µM >= 20% for COc1ccc(S(=O)(=O)NCCCC(=O)Nc2ccc(Sc3ccc(N)cc3)cc2)cc1 [Compound II] ?
TRUE

inhibition at 50 µM >= 20% for COc1ccc(S(=O)(=O)NCCCC(=O)Nc2ccc(Sc3ccc([N+](=O)[O-])cc3)cc2)cc1 [Compound III] ?
TRUE

inhibition at 50 µM >= 20% for NCCCCCC(=O)Nc1ccc(Sc2ccc([N+](=O)[O-])cc2)cc1 [Compound IX] ?
TRUE

Values were extracted from patent US7741521B2.
